Target under test: Env of HIV-1 strain ZM109F.PB4 (HIV-1)
Method description: cell-based or functional assay
Below, each of the binders is paired with its reported neutralization IC50 value.

Req: Retrieve neutralization IC50 measured for γ4κ3 (antibody, V domains shown) VH: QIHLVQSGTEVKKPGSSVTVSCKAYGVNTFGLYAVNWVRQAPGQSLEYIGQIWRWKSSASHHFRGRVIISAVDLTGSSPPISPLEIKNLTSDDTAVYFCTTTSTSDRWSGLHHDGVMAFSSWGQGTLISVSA VL: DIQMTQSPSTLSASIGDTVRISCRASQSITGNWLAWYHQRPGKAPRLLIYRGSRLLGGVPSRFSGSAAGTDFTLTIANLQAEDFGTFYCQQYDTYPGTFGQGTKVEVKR and print it.
Resp: > 15 µg/mL

Req: Retrieve neutralization IC50 measured for γ8κ3 (antibody, V domains shown) VH: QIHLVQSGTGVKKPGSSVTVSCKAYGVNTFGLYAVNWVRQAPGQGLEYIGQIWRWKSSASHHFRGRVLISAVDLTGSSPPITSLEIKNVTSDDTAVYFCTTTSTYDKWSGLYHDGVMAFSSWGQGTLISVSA VL: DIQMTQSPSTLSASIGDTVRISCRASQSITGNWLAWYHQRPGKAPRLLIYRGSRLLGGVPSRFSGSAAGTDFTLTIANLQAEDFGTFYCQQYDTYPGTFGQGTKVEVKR and print it.
Resp: > 15 µg/mL

Req: Retrieve neutralization IC50 measured for 8ANC3630 (antibody, V domains shown) VH: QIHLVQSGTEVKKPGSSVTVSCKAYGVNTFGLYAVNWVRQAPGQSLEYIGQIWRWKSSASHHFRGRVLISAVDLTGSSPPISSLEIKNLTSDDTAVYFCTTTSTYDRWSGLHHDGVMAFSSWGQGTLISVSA VL: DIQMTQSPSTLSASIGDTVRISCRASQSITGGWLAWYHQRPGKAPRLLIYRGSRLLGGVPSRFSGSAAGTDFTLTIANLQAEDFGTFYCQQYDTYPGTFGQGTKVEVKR and print it.
Resp: > 30 µg/mL

Req: Retrieve neutralization IC50 measured for γ20κ11 (antibody, V domains shown) VH: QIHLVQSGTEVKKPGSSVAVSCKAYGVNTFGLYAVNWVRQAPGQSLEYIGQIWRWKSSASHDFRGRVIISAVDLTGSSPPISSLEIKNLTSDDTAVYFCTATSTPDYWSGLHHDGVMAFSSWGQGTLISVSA VL: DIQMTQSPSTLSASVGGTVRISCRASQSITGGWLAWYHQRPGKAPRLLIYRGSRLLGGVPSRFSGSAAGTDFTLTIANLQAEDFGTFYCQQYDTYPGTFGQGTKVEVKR and print it.
Resp: > 15 µg/mL

Req: Retrieve neutralization IC50 measured for γ8κ11 (antibody, V domains shown) VH: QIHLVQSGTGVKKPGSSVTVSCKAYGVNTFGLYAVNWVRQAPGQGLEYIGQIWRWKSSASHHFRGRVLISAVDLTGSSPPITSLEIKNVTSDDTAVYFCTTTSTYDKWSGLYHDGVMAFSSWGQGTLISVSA VL: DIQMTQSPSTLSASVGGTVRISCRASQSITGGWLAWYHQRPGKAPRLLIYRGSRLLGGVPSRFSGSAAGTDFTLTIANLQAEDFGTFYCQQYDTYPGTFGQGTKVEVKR and print it.
Resp: > 15 µg/mL

Req: Retrieve neutralization IC50 measured for γ15κ61 (antibody, V domains shown) VH: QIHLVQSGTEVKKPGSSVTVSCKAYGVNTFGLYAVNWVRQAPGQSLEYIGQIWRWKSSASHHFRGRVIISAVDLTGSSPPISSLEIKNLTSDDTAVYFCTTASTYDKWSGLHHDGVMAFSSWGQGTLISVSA VL: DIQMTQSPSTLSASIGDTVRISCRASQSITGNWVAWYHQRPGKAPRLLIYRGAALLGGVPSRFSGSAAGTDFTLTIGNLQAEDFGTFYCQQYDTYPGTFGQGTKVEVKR and print it.
Resp: > 15 µg/mL

Req: Retrieve neutralization IC50 measured for γ4κ18 (antibody, V domains shown) VH: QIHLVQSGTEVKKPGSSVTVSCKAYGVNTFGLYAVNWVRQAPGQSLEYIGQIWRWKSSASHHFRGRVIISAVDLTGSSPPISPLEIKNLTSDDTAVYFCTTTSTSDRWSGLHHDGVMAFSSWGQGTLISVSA VL: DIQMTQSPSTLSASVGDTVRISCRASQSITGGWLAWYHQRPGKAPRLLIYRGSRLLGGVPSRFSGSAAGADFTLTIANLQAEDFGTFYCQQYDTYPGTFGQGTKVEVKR and print it.
Resp: > 15 µg/mL

Req: Retrieve neutralization IC50 measured for γ46κ61 (antibody, V domains shown) VH: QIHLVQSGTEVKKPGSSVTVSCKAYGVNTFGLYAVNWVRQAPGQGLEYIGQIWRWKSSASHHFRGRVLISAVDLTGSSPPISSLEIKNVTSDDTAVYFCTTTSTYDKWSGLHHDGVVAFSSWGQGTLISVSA VL: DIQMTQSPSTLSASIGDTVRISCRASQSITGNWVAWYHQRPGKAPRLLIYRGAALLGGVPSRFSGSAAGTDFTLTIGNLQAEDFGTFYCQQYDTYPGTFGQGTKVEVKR and print it.
Resp: > 15 µg/mL

Req: Retrieve neutralization IC50 measured for γ15κ18 (antibody, V domains shown) VH: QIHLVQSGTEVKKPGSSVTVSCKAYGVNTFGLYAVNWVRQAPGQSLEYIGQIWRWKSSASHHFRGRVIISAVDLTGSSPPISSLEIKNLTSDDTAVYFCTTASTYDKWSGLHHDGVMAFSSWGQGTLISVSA VL: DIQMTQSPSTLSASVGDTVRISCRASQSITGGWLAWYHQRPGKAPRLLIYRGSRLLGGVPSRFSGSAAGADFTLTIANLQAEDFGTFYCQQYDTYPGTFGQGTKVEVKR and print it.
Resp: > 15 µg/mL

Req: Retrieve neutralization IC50 measured for 8ANC3484 (antibody, V domains shown) VH: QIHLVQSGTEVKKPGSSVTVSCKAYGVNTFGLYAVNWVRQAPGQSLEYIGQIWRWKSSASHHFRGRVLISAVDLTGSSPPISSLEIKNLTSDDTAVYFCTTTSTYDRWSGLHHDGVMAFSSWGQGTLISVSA VL: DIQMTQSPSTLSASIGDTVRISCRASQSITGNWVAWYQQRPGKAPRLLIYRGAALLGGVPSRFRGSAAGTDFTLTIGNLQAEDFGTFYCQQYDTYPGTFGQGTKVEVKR and print it.
Resp: > 30 µg/mL
